B1: library; a variant is named by its letters at N, in order (parent)
chain: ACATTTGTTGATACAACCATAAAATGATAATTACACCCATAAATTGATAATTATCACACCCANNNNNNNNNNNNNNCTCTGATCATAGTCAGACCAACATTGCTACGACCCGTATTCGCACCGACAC

- Variants of: B1
- measurement.notes: relative integration efficiency (T-RL orientation) vs wild-type transposon end (log2 (normalized fold change)); transposon end mutated: right end (5 bp flank + 75 bp right end); higher = more efficient transposition
- recorded.conditions: with VchCAST RNA-guided transposition machinery (E. coli BL21(DE3) host, lacZ target)
Category key, based on recorded relative integration efficiency (log2): Low (below -0.6), Mid (-0.6 to below -0.2), High (-0.2 or more)

Past entries and their recorded results:
>>> label_value("ACATTTGTTAATACAACCATAAAATGATAATTACACCCATAAATTGATAATTATCACACCCAATTTAACTATAACGCTCTGATCATAGTCAGACCAACATTGCTACGACCCGTATTCGCACCGACAC")
"Low"
>>> label_value("ACATTTGTTGATACAACCATAAAATGATAATTACACCCATAAATTGATAATTAGCACACCCATAAATTGATATTGCCTCTGATCATAGTCAGACCAACATTGCTACGACCCGTATTCGCACCGACAC")
"High"
>>> label_value("ACATTTGTTGACACAACCATAAAATGATAATTACACCCATAAATTGATAATTATCACACCCATAAATTGATATTGCCTCTGATCATAGTCAGACCAACATTGCTACGACCCGTATTCGCACCGACAC")
"Mid"
>>> label_value("ACATTTGTTGATACAACCATAAAATGATAATTACACCCATAAATTGATAATTATCACACCCATAAATTCTATTTGCCTCTGATCATAGTCAGACCAACATTGCTACGACCCGTATTCGCACCGACAC")
"Low"
>>> label_value("ACATTTGTTGATACAACCATAGAATGATAATTACACCCATAAATTGATAATTATCACACCCAATTTAACTATAACGCTCTGATCATAGTCAGACCAACATTGCTACGACCCGTATTCGCACCGACAC")
"Low"
>>> label_value("ACATTTGTTGATACAACCATAAAATGATAATTACACCCATAAATTGATAATTATCACACCCATAAATTGCTATTGCCTCTGATCATAGTCAGACCAACATTGCTACGACCCGTATTCGCACCGACAC")
"Mid"
>>> label_value("ACATTTGATGATACAACCATAAAATGATAATTACACCCATAAATTGATAATTATCACACCCATAAATTGATATTGCCTCTGATCATAGTCAGACCAACATTGCTACGACCCGTATTCGCACCGACAC")
"Low"
>>> label_value("ACATTTGTTGATACAACCATAAAATGATAATTACACCCATAAACTGATAATTATCACACCCATAAATTGATATTGCCTCTGATCATAGTCAGACCAACATTGCTACGACCCGTATTCGCACCGACAC")
"High"

--- query ---
stdin: State the band of `ACATTTGTTGATACAACCATAAAATGATAATTACACCCATAAATTGATAATTATCACACCCATAAATTCATATTGCCTCTGATCATAGTCAGACCAACATTGCTACGACCCGTATTCGCACCGACAC`
stdout: High
